Test system: UCD52 (cells of a triple-negative basal-like breast cancer xenograft)
Experiment: cell viability of combination (% of vehicle); higher = less cytotoxic
Details: 1 µM; 72 h; partner dose: 10 nM
observed_property: cell viability of combination
Form rule: numeric answer, no unit written next to it.

Study these solved cases before continuing.
compound	observed_value
CC1=CC(=O)c2ccccc2C1=O [Menadione] + CC(C)C[C@H](NC(=O)[C@H](CCc1ccccc1)NC(=O)CN1CCOCC1)C(=O)N[C@@H](Cc1ccccc1)C(=O)N[C@@H](CC(C)C)C(=O)[C@@]1(C)CO1	62
COc1cc(C(=O)O)ccc1NC(=O)C1NC(CC(C)(C)C)C(C#N)(c2ccc(Cl)cc2F)C1c1cccc(Cl)c1F (configuration not stated) + CC(C)C[C@H](NC(=O)[C@H](CCc1ccccc1)NC(=O)CN1CCOCC1)C(=O)N[C@@H](Cc1ccccc1)C(=O)N[C@@H](CC(C)C)C(=O)[C@@]1(C)CO1	62.7
CCN(CC)CCCC(C)Nc1ccnc2cc(Cl)ccc12.O=P(O)(O)O.O=P(O)(O)O (configuration not stated) [Chloroquine diphosphate] + CC(C)C[C@H](NC(=O)[C@H](CCc1ccccc1)NC(=O)CN1CCOCC1)C(=O)N[C@@H](Cc1ccccc1)C(=O)N[C@@H](CC(C)C)C(=O)[C@@]1(C)CO1	52.9
CC(C)C[C@H](NC(=O)[C@H](Cc1ccccc1)NC(=O)c1cnccn1)B(O)O [Bortezomib] + CC(C)C[C@H](NC(=O)[C@H](CCc1ccccc1)NC(=O)CN1CCOCC1)C(=O)N[C@@H](Cc1ccccc1)C(=O)N[C@@H](CC(C)C)C(=O)[C@@]1(C)CO1	15.5
Cl.Clc1ccccc1CN1CCc2sccc2C1 [Ticlopidine HCl] + CC(C)C[C@H](NC(=O)[C@H](CCc1ccccc1)NC(=O)CN1CCOCC1)C(=O)N[C@@H](Cc1ccccc1)C(=O)N[C@@H](CC(C)C)C(=O)[C@@]1(C)CO1	58.7
CNCCC(Oc1cccc2ccccc12)c1cccs1.Cl (configuration not stated) [Duloxetine HCl] + CC(C)C[C@H](NC(=O)[C@H](CCc1ccccc1)NC(=O)CN1CCOCC1)C(=O)N[C@@H](Cc1ccccc1)C(=O)N[C@@H](CC(C)C)C(=O)[C@@]1(C)CO1	62.4

From here, focus on the item given below.
## Task Record request: cell viability of combination value, item CN1CCN(CCOc2cc(OC3CCOCC3)c3c(Nc4c(Cl)ccc5c4OCO5)ncnc3c2)CC1 [Saracatinib (AZD0530)] + CC(C)C[C@H](NC(=O)[C@H](CCc1ccccc1)NC(=O)CN1CCOCC1)C(=O)N[C@@H](Cc1ccccc1)C(=O)N[C@@H](CC(C)C)C(=O)[C@@]1(C)CO1
## Result 39.3

Hey, just so you know, these numbers are from the supplement of paper PMC6992640.
